Data provenance is patent US20230303649A1.

Target: T1, IL-2R on human primary T cells (human, UniProt P01589 22-272; P14784 27-551; P31785 23-369)
T1 sequence (looked up) 1: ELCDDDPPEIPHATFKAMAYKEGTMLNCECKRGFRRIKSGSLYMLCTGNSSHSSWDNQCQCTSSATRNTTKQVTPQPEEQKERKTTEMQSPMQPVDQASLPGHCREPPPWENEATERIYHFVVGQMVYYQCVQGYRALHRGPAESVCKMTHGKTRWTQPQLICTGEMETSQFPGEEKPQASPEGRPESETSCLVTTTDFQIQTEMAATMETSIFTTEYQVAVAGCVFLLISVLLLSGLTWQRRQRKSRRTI
T1 sequence (looked up) 2: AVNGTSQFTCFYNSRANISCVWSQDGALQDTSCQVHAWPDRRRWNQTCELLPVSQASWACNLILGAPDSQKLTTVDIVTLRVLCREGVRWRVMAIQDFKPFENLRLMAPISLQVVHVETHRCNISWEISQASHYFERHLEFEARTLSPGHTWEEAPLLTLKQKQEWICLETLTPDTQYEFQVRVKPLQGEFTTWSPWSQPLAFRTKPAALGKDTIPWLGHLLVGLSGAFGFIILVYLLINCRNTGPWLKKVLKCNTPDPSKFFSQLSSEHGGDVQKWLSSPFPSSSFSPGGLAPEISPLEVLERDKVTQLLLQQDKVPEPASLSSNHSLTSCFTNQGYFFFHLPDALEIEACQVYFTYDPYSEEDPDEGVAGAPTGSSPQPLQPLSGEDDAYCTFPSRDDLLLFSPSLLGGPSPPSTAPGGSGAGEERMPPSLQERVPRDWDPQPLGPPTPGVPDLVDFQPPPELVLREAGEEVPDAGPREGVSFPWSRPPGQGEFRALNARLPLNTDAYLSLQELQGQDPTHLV
T1 sequence (looked up) 3: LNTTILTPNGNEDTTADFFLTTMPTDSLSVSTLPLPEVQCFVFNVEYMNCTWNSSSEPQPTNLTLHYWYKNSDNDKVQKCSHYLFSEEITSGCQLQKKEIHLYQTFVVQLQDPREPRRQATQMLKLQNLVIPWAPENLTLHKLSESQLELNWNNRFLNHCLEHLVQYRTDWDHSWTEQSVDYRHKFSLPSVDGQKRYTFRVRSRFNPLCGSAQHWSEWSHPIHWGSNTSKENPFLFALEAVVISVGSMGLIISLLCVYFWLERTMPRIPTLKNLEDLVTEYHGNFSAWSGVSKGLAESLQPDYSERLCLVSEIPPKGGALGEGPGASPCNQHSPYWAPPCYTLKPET
Test: cell-based or functional assay
The entries below come with measured CD8 EC50 (nM), STAT5 phosphorylation values attached.
readout: CD8 EC50 (nM), STAT5 phosphorylation

binder="SEQ ID NO 24 (ligand) APTSSSTKKTQLQLEHLLLDLQMILNGINNHKNPKLTRMLTFKFYMPKKATELKHLQCLEEELKPLEEVLRLAQSKNFHLRPRDLISDINVIVLELKGSETTFMCEYADETATIVEFLNRWITFSTSIISTLT" readout="CD8 EC50 (nM), STAT5 phosphorylation" result="10000 nM"
binder="SEQ ID NO 36 (ligand) APTSSSTKKTQLQLEHLLLDLQMILNGINNHKNPKLTRMLTFKFYMPKKATELKHLQCLEEELKPLEEALNLAQSKNFHLRPRDLISDINVIVLELKGSETTFMCEYADETATIVEFLNRWITFSQSIISTLT" readout="CD8 EC50 (nM), STAT5 phosphorylation" result="10000 nM"
binder="SEQ ID NO 10 (ligand) APTSSSTKKTQLQLEHLLLDLQMILNGISNHKNPRLARMLTFKFYMPEKATELKHLQCLEEELKPLEEALRLAPSKNFHLRPRDLISDVNVIVLELKGSETTFMCEYADETATIVEFLNRWITFSTSIISTLT" readout="CD8 EC50 (nM), STAT5 phosphorylation" result="650 nM"
binder="SEQ ID NO 11 (ligand) APTSSSTKKTQLQLEHLRLDLEMILNGINNYKNPKLTRMLTFKFYMPKKATELKHLQCLEEELKPLEEVLNLAQSKNFHLRPRDLISNINVIVLELKGSETTFMCEYADETATIVEFLNRWITFSTSIISTLT" readout="CD8 EC50 (nM), STAT5 phosphorylation" result="650 nM"
